test method notes: anti-His antibody binders, primary screen, artefact control for SMM control protein annotation, biochemical, small-molecule microarray, 635 nm fluorescence (AID 1128);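 note: score merges feature fluorescence with signal-to-noise for each printed compound spot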
condition notes: anti-His Alexa647 antibody binding, higher = more signal
attribute measured: composite z-score
Please give the numeric answer without any surrounding text.

Consider the reported composite z-score for these compounds:
| compound | attribute measured | observed measurement |
| --- | --- | --- |
| CCCCC(=C=CC[C@@H](O)c1ccc(OCCO)cc1)C[C@@H](O)c1cc(Cl)cc(Cl)c1O | composite z-score | 0.155 |
| CCCCCN1CC=CC23O[C@@H]4/C=C\CCC(C)OC(=O)C4[C@H]2C(=O)N(CCO)[C@@H]3C1=O (some centres not stated) | composite z-score | 1.31 |
| C=CCC(OC(C)=O)[C@@H]1[C@@H](N(Cc2ccc(-c3cccc(C(F)(F)F)c3)o2)C(=O)c2ccc(-c3ccccc3)cc2)c2cc(OCCCO)ccc2N1C(=O)Cc1ccc(OC)cc1 (some centres not stated) | composite z-score | -0.729 |

// below: composite z-score requested for another compound
q: Quick one: composite z-score of C[N+](C)(C)CCCCNC(=O)[C@@H]1C[C@@H]2C(=O)NCC(=O)N2[C@@H]1c1cccc(OCCO)c1 ?
a: 2.59

---

test method notes: cytotoxicity in PAX8-dependent RMG-1 cells, dose response, cell-based, cherry-pick (AID 687029);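 note: cells exposed to compound for 96 hours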
condition notes: RMG-1 viability, CellTiterGlo ATP luminescence, 96 h; series mostly up to 35 µM
Results with a measured potency or affinity are listed apart. Activity calls are given as the source filed them.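 How the source made its calls: active means signal drop whose fitted half-maximal concentration is at most twice the top valid dose, in every test run; inconclusive means mixed calls across runs, poor fit, or flat 30 to 70% inhibition; inactive means wrong direction, flat within 30%, or potency beyond limit.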
attribute measured: activity change, negative = inhibition

| molecule | observed measurement |
| --- | --- |
| O=C(NNC(=O)c1cccc2ccccc12)c1cccc(F)c1 | inactive |
| CCCCC1Cc2[nH]c(=S)[nH]c(=O)c2C(c2ccc(F)cc2)O1 (stereo not drawn) | inactive |
| COc1ccccc1-n1cc([C@@H]2C[C@H]3CN(c4ccccc4)C(=O)[C@]34CCCN24)cn1 | inactive |
| C[C@@H]1CCCCO[C@@H](CN(C)Cc2ccc(C(F)(F)F)cc2)[C@H](C)CN([C@H](C)CO)C(=O)c2cc(NC(=O)c3ccccc3)ccc2O1 | inactive |
| Cc1ccccc1-c1ccc([C@@H]2[C@@H](CO)N3CCCCN(C(=O)NC4CCCC4)C[C@H]23)cc1 | inactive |
| O=C1c2ccccc2C(=O)c2[nH]c(=O)[nH]c21 | inactive |

q: Quick one: activity change, negative = inhibition of COc1ccc(NC(=O)Nc2ccc3c(c2)C(=O)N([C@H](C)CO)C[C@@H](C)[C@@H](CN(C)C(=O)Cc2ccccc2)OCCCC[C@H](C)O3)cc1 ?
a: inactive

q: Quick one: activity change, negative = inhibition of Cc1cccc(S(=O)(=O)N2CC[C@@H]3[C@H](CO)N(C)c4ccc(-c5ccc(C#N)cc5)cc4[C@@H]32)c1 ?
a: inactive

---

test method notes: E. coli acrAB mutant growth effects, primary screen, E. coli filamentation inducers, strain DRC39, OD650, 48 h (AID 1179);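 note: screen aims at cell division blockers that make cells filament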
condition notes: E. coli DRC39 delta-acrAB growth, higher = more signal, called active from +8 up or from −8 down
Quick rule for you: z-score at 0.6 or higher means rule met, lower means rule not met.

See these solved cases before continuing.
| compound | cat |
| --- | --- |
| CC(C)(C)OC(=O)CC[C@@]12N=C(c3ccc(OCCCO)cc3)O[C@@H]1c1ccccc1N(Cc1ccccc1)C2=O | rule not met |
| COc1ccc(C#Cc2ccc3c(c2)[C@]2(C(=O)N3)[C@H](c3ccc(O)cc3)N3[C@H](c4ccccc4)[C@H](c4ccccc4)OC(=O)[C@H]3[C@@H]2C(N)=O)cc1 | rule not met |

q: Does CCOC(=O)C[C@H]1[C@H](OC(=O)c2ccc(C(=O)c3ccccc3)cc2)[C@@H](NC(=O)Cc2ccc(OC)cc2)c2cc(OCCCO)ccc2N1C(=O)Cc1ccc(OC)cc1 have a reported z-score of at least 0.6?
a: rule met

q: Does COC(=O)[C@@]1(CCC(=O)OC(C)(C)C)COC(c2ccc(OCCCO)cc2)=N1 have a reported z-score of at least 0.6?
a: rule met

q: Does COc1ccc(C#Cc2ccc3c(c2)[C@]2(C(=O)N3)[C@H](c3ccc(O)cc3)N3[C@H](c4ccccc4)[C@H](c4ccccc4)OC(=O)[C@H]3[C@@H]2C(=O)N2CCN(c3ncccn3)CC2)cc1 have a reported z-score of at least 0.6?
a: rule not met

q: Does COCCOC(=O)N1C(=O)[C@@]2(c3cc(C#CC4(O)CCCCCC4)ccc31)[C@H](C(=O)NC[C@H](O)c1ccccc1)[C@H]1C(=O)O[C@H](c3ccccc3)[C@H](c3ccccc3)N1[C@@H]2c1ccccc1OCCO have a reported z-score of at least 0.6?
a: rule met

q: Does CC(CO)N1C(=O)[C@@H]2C3C(=O)OCCC/C=C\[C@H]3OC23C=CCN(Cc2ccccc2)C(=O)[C@@H]13 (stereo partly drawn) have a reported z-score of at least 0.6?
a: rule met

q: Does CC(C)C[C@@H]1NC(=O)[C@H]2C[C@@H](C(=O)NCCCC[N+](C)(C)C)[C@@H](c3cccc(OCCO)c3)N2C1=O have a reported z-score of at least 0.6?
a: rule not met

q: Does C=CCC(OC(C)=O)[C@@H]1[C@@H](N(Cc2cc3ccccc3o2)C(=O)c2ccc(-c3ccccc3)cc2)c2cc(OCCCO)ccc2N1C(=O)c1ccc(-c2ccccc2)cc1 (stereo partly drawn) have a reported z-score of at least 0.6?
a: rule met

q: Does COc1ccc([Si](C)(C)[C@H]2[C@H](CC(=O)N(CCO)Cc3ccccc3)O[C@@]3(C(=O)N(Cc4ccc(N5CCC5=O)cc4)c4ccccc43)[C@@H]2C)cc1 have a reported z-score of at least 0.6?
a: rule met

q: Does COCCOC(=O)N1C(=O)[C@@]2(c3cc(C#CCNC(N)=O)ccc31)[C@H](C(=O)NC[C@H](O)c1ccccc1)[C@H]1C(=O)O[C@H](c3ccccc3)[C@H](c3ccccc3)N1[C@@H]2c1ccc(O)cc1 have a reported z-score of at least 0.6?
a: rule not met

q: Does CC(C)(C)OC(=O)CC[C@@]1(C(=O)N2CCOCC2)N=C(c2ccc(OCCCO)cc2)O[C@@H]1c1ccccc1 have a reported z-score of at least 0.6?
a: rule met

q: Does CCCCCCC#C[Si](O[C@H](c1ccccc1)c1cn(Cc2ccccc2)nn1)(C(C)C)C(C)C have a reported z-score of at least 0.6?
a: rule met

---

test method notes: E. coli DRC41 culture turbidity changes, primary screen, E. coli filamentation inducer project, strain DRC41, OD650, 48 h (AID 1152);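 note: E. coli MC1000 strain DRC41 lacking acrAB efflux pump and sulA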
condition notes: E. coli DRC41 (acrAB sulA), higher = more signal, called active from +8 up or from −8 down
List of z-score values.
Please give the numeric answer without any surrounding text.

Consider the reported z-score for these compounds:
| compound | z-score |
| --- | --- |
| COc1ccc([Si](C)(C)[C@@H]2[C@@H](CCn3cc([C@H](O)c4ccccc4)nn3)O[C@]3(C(=O)N(C)c4c(Br)cc(C)cc43)[C@H]2C)cc1 | 3.5 |
| COC(=O)C1=CC(c2ccc(CO)cc2)=CC(C2CC2)N(C)C=C1C(=O)OC (stereo not given) | 2.75 |
| O=C1c2ccccc2[C@@]2(Cc3ccccc3N(CC(F)(F)F)C2=O)[C@H](c2ccc(CO)cc2)N1Cc1ccccc1C(F)(F)F | 1.43 |
| CCOC(=O)C[C@H]1[C@H](OC(=O)c2ccc(-c3ccccc3)cc2)[C@@H](NC(=O)c2ccccc2)c2cc(OCCCO)ccc2N1C(=O)c1ccccc1 | 2.36 |
| COC(=O)[C@@]1(CCC(=O)OC(C)(C)C)COC(c2ccc(OCCCO)cc2)=N1 | 1.06 |

q: Quick one: z-score of COc1ccc([Si](C)(C)[C@@H]2[C@@H](CC(=O)N3CCC[C@H]3CO)O[C@]3(C(=O)N(Cc4ccc(N5CCC5=O)cc4)c4ccccc43)[C@H]2C)cc1 ?
a: 0.436

q: Quick one: z-score of C#CCOc1ccc(C[C@H]2C(=O)O[C@H](Cc3ccccc3)[C@H](/C=C/C3CC3)N2CC#C)cc1 ?
a: 2.04

q: Quick one: z-score of CC(=O)NCCCC[C@@H]1NC(=O)[C@@H]2C[C@H](C(=O)O)[C@H](c3cccc(OCCO)c3)N2C1=O ?
a: 0.733

---

tested target: Melanocortin receptor 4 (Homo sapiens)
test method notes: MC4R antagonists, dose response, counter-screen for LGR2 antagonist project, cell-based, plate reader, cherry pick (AID 743444)
condition notes: MC4R-expressing cells, antagonist mode; series mostly up to 35 µM
Potency and affinity values are given separately. Activity calls are given as the source filed them. The rule behind the calls is not given here.
attribute measured: outcome

Consider the reported outcome for these molecules:
| molecule | outcome |
| --- | --- |
| CCOC(=O)C1=CCN(S(=O)(=O)c2ccccc2C)C1c1cccc(C)c1 (centres undefined) | inactive |
| COc1ccccc1C=NNC(=O)c1ccncc1 | inactive |
| COc1cccc(C#Cc2ccc([C@@H]3[C@@H](CO)N(C(=O)C4CCC4)[C@H]3C#N)cc2)c1 | inactive |
| COc1ccc2cc(C#N)c(Nc3cccc(F)c3)nc2c1 | inactive |
| Cc1ccc(NC(=O)c2ncn(CC(=O)N3CCN(c4ccccn4)CC3)n2)cc1C | inactive |

q: Quick one: outcome of CNCc1ccccc1Sc1ccc(O)c(O)c1 ?
a: inactive

q: Quick one: outcome of COc1ccc(NC(=O)N(C)C[C@@H]2OCCCC[C@H](C)Oc3ccc(NC(=O)C4CCCCC4)cc3C(=O)N([C@H](C)CO)C[C@@H]2C)cc1 ?
a: inactive

q: Quick one: outcome of COc1cc(/C=N/Nc2nc(C)nc3c2cnn3-c2ccccc2)ccc1O ?
a: inactive

q: Quick one: outcome of CC(C)(C)c1ccc(Cn2c(=O)cnc3ccccc32)cc1 ?
a: inactive

q: Quick one: outcome of C[C@@H]1CN([C@H](C)CO)C(=O)c2cc(NC(=O)Nc3cccc4ccccc34)ccc2O[C@@H]1CN(C)C(=O)Nc1ccccc1 ?
a: inactive
